Reported kinact values for the following molecules.
target: PAD1 (Homo sapiens); construct: made in house; experiment: Inactivation kinetics of PAD1 (COLDER citrulline assay); assay type: biochemical; conditions: PAD1; read-out: kinact (converted)

MOLECULE: N=C(CF)NCCC[C@H](NC(=O)c1cc(I)c(F)c(I)c1O)c1nc2ccccc2[nH]1
kinact / s⁻¹: 0.00667
--
MOLECULE: N=C(CF)NCCC[C@H](NC(=O)c1cc(I)cc(I)c1O)c1nc2ccccc2[nH]1
kinact / s⁻¹: 0.00217
--
MOLECULE: COc1c(I)cc(I)cc1C(=O)NC(CCCNC(=N)CF)c1nc2ccccc2[nH]1 (stereo not shown)
kinact / s⁻¹: 0.00433
--
MOLECULE: N=C(CF)NCCC[C@H](NC(=O)c1cc(Br)cc(Br)c1O)c1nc2ccccc2[nH]1
kinact / s⁻¹: 0.003
--
MOLECULE: N=C(CF)NCCC[C@H](NC(=O)c1cc(Cl)cc(Cl)c1O)c1nc2ccccc2[nH]1
kinact / s⁻¹: 0.00267
--
MOLECULE: N=C(CF)NCCC[C@H](NC(=O)c1cc(I)ccc1O)c1nc2ccccc2[nH]1
kinact / s⁻¹: 0.00117
--
MOLECULE: N=C(CF)NCCC[C@H](NC(=O)c1cc(I)cc(I)c1)c1nc2ccccc2[nH]1
kinact / s⁻¹: 0.00367

====

Target: PAD1 (Homo sapiens, UniProt Q9ULC6)
Construct: made in house
Sequence (Q9ULC6 1-663): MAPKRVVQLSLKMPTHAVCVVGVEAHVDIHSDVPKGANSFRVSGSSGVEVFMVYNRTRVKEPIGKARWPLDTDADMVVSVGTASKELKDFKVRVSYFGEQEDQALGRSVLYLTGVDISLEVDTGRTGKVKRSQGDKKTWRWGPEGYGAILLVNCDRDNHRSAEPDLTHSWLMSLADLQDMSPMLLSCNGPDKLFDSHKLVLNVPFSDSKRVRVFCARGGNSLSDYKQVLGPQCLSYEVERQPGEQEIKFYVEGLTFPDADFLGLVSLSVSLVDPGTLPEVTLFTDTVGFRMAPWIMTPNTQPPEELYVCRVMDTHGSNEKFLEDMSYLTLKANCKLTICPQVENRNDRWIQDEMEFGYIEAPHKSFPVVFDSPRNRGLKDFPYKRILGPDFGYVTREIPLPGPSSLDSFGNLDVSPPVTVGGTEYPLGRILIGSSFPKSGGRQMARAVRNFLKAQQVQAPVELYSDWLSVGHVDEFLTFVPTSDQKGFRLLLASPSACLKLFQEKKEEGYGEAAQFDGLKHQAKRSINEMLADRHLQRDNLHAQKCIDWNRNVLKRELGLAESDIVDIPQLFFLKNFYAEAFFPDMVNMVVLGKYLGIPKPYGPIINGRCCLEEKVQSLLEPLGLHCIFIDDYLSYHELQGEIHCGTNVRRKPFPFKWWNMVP
Assay: Inactivation kinetics of PAD1 (COLDER citrulline assay)
Type: biochemical
Conditions: PAD1 over the other PADs; bracketed value under kinact/KI
READOUT_LABEL: Fold PAD selectivity

MOLECULAR_STRING: N=C(CCl)NCCC[C@H](NC(=O)c1cc(I)ccc1O)c1nc2ccccc2[nH]1
SYSTEM: PAD1 (Homo sapiens, UniProt Q9ULC6)
RESULT: [2] fold
--
MOLECULAR_STRING: N=C(CCl)NCCC[C@H](NC(=O)c1ccccc1O)c1nc2ccccc2[nH]1
SYSTEM: PAD1 (Homo sapiens, UniProt Q9ULC6)
RESULT: [1] fold
--
MOLECULAR_STRING: N=C(CF)NCCC[C@H](NC(=O)c1cc(Cl)cc(Cl)c1O)c1nc2ccccc2[nH]1
SYSTEM: PAD1 (Homo sapiens, UniProt Q9ULC6)
RESULT: 10 fold
--
MOLECULAR_STRING: N=C(CCl)NCCC[C@H](NC(=O)c1cc(Cl)cc(Cl)c1O)c1nc2ccccc2[nH]1
SYSTEM: PAD1 (Homo sapiens, UniProt Q9ULC6)
RESULT: [2] fold
--
MOLECULAR_STRING: CC(C)c1cc(C(=O)N[C@@H](CCCNC(=N)CF)c2nc3ccccc3[nH]2)c(O)c(C(C)C)c1
SYSTEM: PAD1 (Homo sapiens, UniProt Q9ULC6)
RESULT: [1] fold
